Hello, the source for this data is ChEMBL document CHEMBL3621125, in case you need it.

Ki, Carbonic anhydrase 1 (Homo sapiens): measured values

INSERT INTO results (structure_string, assay_metric, result_value) VALUES
  ('O=c1ccc2ccc(OCc3cn(-c4cccc(Br)c4)nn3)cc2o1', 'Ki', '> 10 µM');

Then this compound:
## Task Value wanted: Ki (Carbonic anhydrase 1 (Homo sapiens)) of entry Cc1cc(=O)oc2cc(-n3cc(COc4ccc5ccc(=O)oc5c4)nn3)ccc12
## Result > 10 µM

---

Ki, Carbonic anhydrase 9 (Homo sapiens, UniProt Q16790): measured values

INSERT INTO assay_data (structure_string, result_value) VALUES
  ('Cc1cc(=O)oc2cc(-n3cc(COc4ccc5ccc(=O)oc5c4)nn3)ccc12', '22.8 nM'),
  ('O=c1ccc2ccc(OCc3cn(-c4ccccc4)nn3)cc2o1', '24.5 nM'),
  ('O=C(O)c1ccc(-n2cc(COc3ccc4ccc(=O)oc4c3)nn2)cc1', '28.8 nM'),
  ('O=c1ccc2ccc(OCc3cn(-c4ccc(F)cc4)nn3)cc2o1', '24 nM');

Then this compound:
## Task Value wanted: Ki (Carbonic anhydrase 9 (Homo sapiens, UniProt Q16790)) of entry NS(=O)(=O)c1ccc(-n2cc(COc3ccc4ccc(=O)oc4c3)nn2)cc1
## Result 14.3 nM
